src = paper PMC7830893

- EXPERIMENTAL TARGET: α-glucosidase
- ASSAY SUMMARY: α-glucosidase enzyme kinetic study (Lineweaver–Burk and secondary plots)
- Format: biochemical
- ASSAY CONDITIONS: from secondary plot
REPORTED METRIC: Ki (µM)
Your answer should be a plain number; it is taken to be in µM.

Q. Given the molecule COc1c(O)cc2ccc3c(Cc4ccc(O)cc4)c(O)cc4c3c2c1CO4 [Compound 3, gastrobellinol C] , what is its reported Ki?
A. 87.3

* * *

- EXPERIMENTAL TARGET: α-glucosidase
- ASSAY SUMMARY: α-glucosidase inhibitory assay (pNPG, absorbance at 405 nm)
- ASSAY CONDITIONS: pNPG substrate, 37 °C, mean ± SD, triplicate
// pIC50 lookup, one value per entry
Scale: pIC50 equals -log10([C]), with [C] in mol/L.

Recorded pIC50, per entry:
- COMPOUND: "COc1c(O)cc2c3c1COc1c(Cc4ccc(O)cc4)c(O)cc(c1-3)CC2"
  EXPERIMENTAL TARGET: "α-glucosidase"
  pIC50: 4.05
- COMPOUND: "COc1c(O)cc2c3c1COc1cc(O)c(Cc4ccc(O)cc4)c(c1-3)CC2 [Compound 13, 1-(4′-hydroxybenzyl)-imbricartin]"
  EXPERIMENTAL TARGET: "α-glucosidase"
  pIC50: 4.27
- COMPOUND: "COc1cc(/C=C/C=O)ccc1O"
  EXPERIMENTAL TARGET: "α-glucosidase"
  pIC50: 3.42
- COMPOUND: "COc1c(O)cc2c3c1COc1cc(O)cc(c1-3)CC2"
  EXPERIMENTAL TARGET: "α-glucosidase"
  pIC50: 3.52
- COMPOUND: "COc1cc2ccc3cc(O)c(OC)c4c(=O)oc(c1)c2c34"
  EXPERIMENTAL TARGET: "α-glucosidase"
  pIC50: 3.55

Q. Param readout = pIC50; param system = α-glucosidase; param query = `COc1cc2c3c(ccc4cc(O)c(OC)c(c43)CO2)c1Cc1ccc(O)cc1` ; response: value
A. 4.01

Q. Requested read-out pIC50, target or system α-glucosidase, entry `COc1c(O)cc2ccc3c(Cc4ccc(O)cc4)c(O)cc4c3c2c1CO4`
A. 4.34
